experiment: Ex vivo bio-distribution at 1 h and 2 h post-injection; assay type: in vivo, mice; conditions: mouse, tumor, iv, 1 mCi, total radioactivity, treated tumors, 1 h post-injection; read-out: tumoral uptake, treated tumors, 1 h
Residues, ends and D or L forms follow the SMILES beside them. *: point of attachment. X1 = O=C(O)CN1CCN(CC(=O)O)CC(Cc2ccc(NC(=S)*)cc2)N(CC(=O)O)CC1
quantity_measured: tissue uptake at 1 h (%ID/g)
Give bare numbers, in %ID/g.

Enquiry: Item CCC(C)C(NC(=O)CNC(=O)CNC(=O)CNC(=S)Nc1ccc(CC2CN(CC(=O)O)CCN(CC(=O)O)CCN2CC(=O)O)cc1)C(=O)NC(CCC(=O)O)C(=O)NC(Cc1ccccc1)C(=O)NC(C=O)CC(=O)O (stereo not shown) [^68Ga-NOTA-GP, metal not drawn] (X1-GGGIEFD-aldehyde; configuration not given here) has what recorded tissue uptake at 1 h?
Return: 1.15
